The reported measurements were obtained from patent US20180185504A1.

# Kd listing for each entry below
Test Target: T1, hPRLR.mFc (soluble dimeric human PRLR) (human)
T1 construct: dimeric PRLR construct
T1 chain: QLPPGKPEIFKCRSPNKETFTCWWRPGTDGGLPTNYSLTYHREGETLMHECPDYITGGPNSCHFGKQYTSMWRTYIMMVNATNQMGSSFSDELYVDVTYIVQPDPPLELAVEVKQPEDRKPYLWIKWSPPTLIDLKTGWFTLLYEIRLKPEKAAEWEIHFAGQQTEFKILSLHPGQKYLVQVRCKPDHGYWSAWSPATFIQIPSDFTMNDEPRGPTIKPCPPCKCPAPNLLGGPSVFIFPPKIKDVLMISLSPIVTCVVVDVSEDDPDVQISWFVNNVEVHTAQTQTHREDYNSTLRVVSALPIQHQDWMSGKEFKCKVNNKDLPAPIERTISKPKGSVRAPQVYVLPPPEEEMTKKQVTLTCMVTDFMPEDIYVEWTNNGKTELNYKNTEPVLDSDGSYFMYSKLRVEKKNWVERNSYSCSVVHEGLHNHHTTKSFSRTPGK
Experiment: SPR (Biacore), antibody capture, 37 C
Readout: Kd (nM)

* H1H6800P (antibody, human IgG1, V domains shown, human IgG1 Fc (H1H)) VH: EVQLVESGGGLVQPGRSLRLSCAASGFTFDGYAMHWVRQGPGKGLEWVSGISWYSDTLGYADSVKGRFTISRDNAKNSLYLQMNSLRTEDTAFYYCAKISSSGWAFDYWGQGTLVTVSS VL: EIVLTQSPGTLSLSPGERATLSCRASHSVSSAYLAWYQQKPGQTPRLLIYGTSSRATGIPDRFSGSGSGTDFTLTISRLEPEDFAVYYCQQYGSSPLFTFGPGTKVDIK | 0.229
* H1H6795P (antibody, human IgG1, V domains shown, human IgG1 Fc (H1H)) VH: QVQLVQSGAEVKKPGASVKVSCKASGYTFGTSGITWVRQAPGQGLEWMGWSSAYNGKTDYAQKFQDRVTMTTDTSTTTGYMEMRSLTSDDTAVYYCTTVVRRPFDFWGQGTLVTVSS VL: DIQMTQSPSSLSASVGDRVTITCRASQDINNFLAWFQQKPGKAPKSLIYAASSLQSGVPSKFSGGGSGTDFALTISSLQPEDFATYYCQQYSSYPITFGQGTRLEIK | 0.0402
